- SYSTEM TESTED: Muscarinic acetylcholine receptor M3 (Homo sapiens, UniProt P20309)
- Sequence (P20309 whole entry): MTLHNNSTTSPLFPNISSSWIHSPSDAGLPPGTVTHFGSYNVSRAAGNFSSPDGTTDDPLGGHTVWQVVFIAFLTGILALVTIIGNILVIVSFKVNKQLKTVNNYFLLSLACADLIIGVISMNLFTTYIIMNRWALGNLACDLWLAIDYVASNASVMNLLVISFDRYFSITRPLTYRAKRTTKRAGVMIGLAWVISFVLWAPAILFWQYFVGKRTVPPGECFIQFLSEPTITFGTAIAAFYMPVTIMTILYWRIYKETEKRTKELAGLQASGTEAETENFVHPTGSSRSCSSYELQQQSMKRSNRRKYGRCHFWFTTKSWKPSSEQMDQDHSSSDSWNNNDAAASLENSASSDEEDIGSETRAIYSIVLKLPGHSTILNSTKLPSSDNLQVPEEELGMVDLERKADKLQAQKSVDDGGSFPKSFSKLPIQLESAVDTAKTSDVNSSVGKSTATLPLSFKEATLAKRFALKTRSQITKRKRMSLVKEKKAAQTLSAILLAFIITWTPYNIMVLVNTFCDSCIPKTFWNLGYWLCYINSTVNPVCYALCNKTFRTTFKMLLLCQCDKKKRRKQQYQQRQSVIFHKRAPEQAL
- MEASUREMENT DESCRIPTION: Displacement of [3H]NMS from human muscarinic M3 receptor expressed in CHO-K1 cells after 16 hrs by scintillation proximity assay
I'd appreciate it if you could supply log10 of IC50 values for the items below.
Hello, just confirming the data are log10 of IC50 with units of nM.

Take a look at these entries with their results.
SMILES DATA | log10 of IC50
O=C(c1ccc2occc2c1)N1CCOC2(CCN(Cc3ccc(Cl)cc3)CC2)C1 | 1.50
O=C(c1ccc(CO)o1)N1CCOC2(CCN(Cc3ccc(Cl)cc3)CC2)C1 | 2.00
O=C(c1ccoc1)N1CCOC2(CCN(Cc3ccc(Cl)cc3)CC2)C1 | 2.10
Cc1ccc(C(=O)N2CCOC3(CCN(Cc4ccc(Cl)cc4)CC3)C2)o1 | 1.70

// input: 3 compounds below; output: log10 of IC50 for each
1. O=C(c1ccsc1)N1CCC2(CCN(Cc3ccccc3)CC2)CC1
2. Cc1ccccc1CN1CCC2(CC1)CN(C(=O)c1csc(C(C)C)n1)CCO2
3. O=C(c1ccco1)N1CCOC2(CCN(Cc3ccc(Cl)cc3)CC2)C1

2.50
2.60
1.80

* * *

- SYSTEM TESTED: Muscarinic acetylcholine receptor M3 (Homo sapiens, UniProt P20309)
- MEASUREMENT DESCRIPTION: Displacement of [3H]NMS from human muscarinic M3 receptor expressed in CHO-K1 cells after 16 hrs by scintillation proximity assay
pIC50: −log10 of the molar value.
Record 1.0 whenever pIC50 is at 7 or higher; record 0.0 when lower.

SMILES DATA | CLASS LABEL
CC(C)c1nc(C(=O)N2CCOC3(CCN(Cc4ccc(Cl)cc4)CC3)C2)cs1 | 1.0
CCc1nc(C(=O)N2CCOC3(CCN(Cc4ccc(Cl)cc4)CC3)C2)cs1 | 1.0
CC(C)c1nc(C(=O)N2CCOC3(CCN(Cc4cccc(Cl)c4)CC3)C2)cs1 | 1.0
O=C(c1cccnc1)N1CCC2(CCN(Cc3ccccc3)CC2)CC1 | 0.0
O=C(c1cccnc1)N1CCOC2(CCN(Cc3ccc(Cl)cc3)CC2)C1 | 0.0

Please check the record O=C(c1cnsn1)N1CCOC2(CCN(Cc3ccc(Cl)cc3)CC2)C1 and state if its pIC50 is at or above 7.
0.0

Now consider CC(C)c1nc(C(=O)N2CCOC3(CCN(Cc4ccccc4)CC3)C2)cs1 and answer again.
1.0

Now consider O=C(c1ccon1)N1CCOC2(CCN(Cc3ccc(Cl)cc3)CC2)C1 and answer again.
0.0

Now consider Cc1nc(C(=O)N2CCOC3(CCN(Cc4ccccc4Cl)CC3)C2)cs1 and answer again.
1.0

Now consider Cc1nc(C(=O)N2CCOC3(CCN(Cc4ccc(Cl)cc4)CC3)C2)cs1 and answer again.
1.0

Now consider CCOc1ccccc1C(=O)N1CCC2(CCN(Cc3ccccc3)CC2)CC1 and answer again.
0.0

Now consider Cc1nc(C(=O)N2CCOC3(CCN(Cc4cccc(Cl)c4)CC3)C2)cs1 and answer again.
1.0

Now consider O=C(c1ccccc1)N1CCOC2(CCN(Cc3ccc(Cl)cc3)CC2)C1 and answer again.
0.0

Now consider O=C(c1ncccn1)N1CCOC2(CCN(Cc3ccc(Cl)cc3)CC2)C1 and answer again.
0.0

Now consider CC(C)c1nc(C(=O)N2CCOC3(CCN(Cc4ccccc4Cl)CC3)C2)cs1 and answer again.
1.0

Now consider O=C(c1ccco1)N1CCC2(CCN(Cc3ccccc3)CC2)CC1 and answer again.
0.0

* * *

- MEASUREMENT DESCRIPTION: Clearance in human microsomes
- Format: ADME, Microsome
PROPERTY: microsomal CLint (µL/min/mg)
Answers are plain numbers, in µL/min/mg.

Request the reported microsomal CLint associated with Cc1nc(C(=O)N2CCOC3(CCN(Cc4ccc(Cl)cc4)CC3)C2)cs1
11

* * *

- MEASUREMENT DESCRIPTION: Lipophilicity, log D of the compound
- Format: physicochemical
- MEASUREMENT SETUP: octanol/water
PROPERTY: logD
Give bare numbers.

Request the reported logD associated with Cc1nc(C(=O)N2CCOC3(CCN(Cc4ccc(Cl)cc4)CC3)C2)cs1
2.2

* * *

- SYSTEM TESTED: Muscarinic acetylcholine receptor M2 (Homo sapiens)
- MEASUREMENT DESCRIPTION: Displacement of [3H]NMS from human muscarinic M2 receptor expressed in CHO-K1 cells after 16 hrs by scintillation proximity assay
- Format: cell-based
Lab note: cut-off is 20 nM. Strictly less in IC50 is 1 (yes). Exactly 20 nM or more is 0 (no).

SMILES DATA | CLASS LABEL
O=C(c1ccco1)N1CCC2(CCN(Cc3ccccc3)CC2)CC1 | 0 (no)
O=C(c1cccnc1)N1CCC2(CCN(Cc3ccccc3)CC2)CC1 | 0 (no)
CC(C)c1nc(C(=O)N2CCOC3(CCN(Cc4ccc(Cl)cc4)CC3)C2)cs1 | 0 (no)
O=C(c1ccoc1)N1CCOC2(CCN(Cc3ccc(Cl)cc3)CC2)C1 | 0 (no)
O=C(c1ccco1)N1CCOC2(CCN(Cc3ccc(Cl)cc3)CC2)C1 | 0 (no)
Cc1nc(C(=O)N2CCOC3(CCN(Cc4ccccc4Cl)CC3)C2)cs1 | 1 (yes)
O=C(c1ccon1)N1CCOC2(CCN(Cc3ccc(Cl)cc3)CC2)C1 | 0 (no)
CC(C)(C)c1nc(C(=O)N2CCOC3(CCN(Cc4ccc(Cl)cc4)CC3)C2)cs1 | 0 (no)

Consider Cc1ccccc1CN1CCC2(CC1)CN(C(=O)c1csc(C(C)C)n1)CCO2 . Does its IC50 lie strictly below 20 nM?
0 (no)

Now consider CCc1nc(C(=O)N2CCOC3(CCN(Cc4ccc(Cl)cc4)CC3)C2)cs1 and answer again.
1 (yes)

Now consider CC(C)c1nc(C(=O)N2CCOC3(CCN(Cc4ccccc4Cl)CC3)C2)cs1 and answer again.
0 (no)

Now consider O=C(c1ncccn1)N1CCOC2(CCN(Cc3ccc(Cl)cc3)CC2)C1 and answer again.
0 (no)

Now consider O=C(c1ncccn1)N1CCC2(CCN(Cc3ccccc3)CC2)CC1 and answer again.
0 (no)

Now consider Cc1nc(C(=O)N2CCOC3(CCN(Cc4cccc(Cl)c4)CC3)C2)cs1 and answer again.
1 (yes)

* * *

- SYSTEM TESTED: Muscarinic acetylcholine receptor M1 (Homo sapiens)
- Sequence (P11229 whole entry): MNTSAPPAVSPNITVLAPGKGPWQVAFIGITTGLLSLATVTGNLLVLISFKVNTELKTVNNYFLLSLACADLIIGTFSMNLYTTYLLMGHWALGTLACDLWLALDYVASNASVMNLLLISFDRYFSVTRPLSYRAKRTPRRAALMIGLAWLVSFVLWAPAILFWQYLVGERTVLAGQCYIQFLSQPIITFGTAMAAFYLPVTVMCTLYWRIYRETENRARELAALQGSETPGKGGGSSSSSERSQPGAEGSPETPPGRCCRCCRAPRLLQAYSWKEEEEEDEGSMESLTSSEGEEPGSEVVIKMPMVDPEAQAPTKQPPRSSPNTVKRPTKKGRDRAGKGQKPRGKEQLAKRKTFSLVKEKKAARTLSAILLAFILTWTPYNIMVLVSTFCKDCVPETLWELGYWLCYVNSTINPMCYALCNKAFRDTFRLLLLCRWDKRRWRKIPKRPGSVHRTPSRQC
- MEASUREMENT DESCRIPTION: Displacement of [3H]NMS from human muscarinic M1 receptor expressed in CHO-K1 cells after 16 hrs by scintillation proximity assay
PROPERTY: IC50 (nM)
One number for each entry, in nM.

Request the reported IC50 associated with O=C(O[C@H]1C[N+]2(CCCOc3ccccc3)CCC1CC2)C(O)(c1cccs1)c1cccs1 [ACLIDINIUM BROMIDE]
0.1

* * *

- SYSTEM TESTED: UniProt P20309
- MEASUREMENT DESCRIPTION: Displacement of [3H]NMS from human muscarinic M3 receptor expressed in CHO-K1 cells after 16 hrs by scintillation proximity assay
pIC50: −log10 of the molar value.
I'd appreciate it if you could supply pIC50 values for the items below.

Take a look at these entries with their results.
SMILES DATA | pIC50
CC(C)(C)c1nc(C(=O)N2CCOC3(CCN(Cc4ccc(Cl)cc4)CC3)C2)cs1 | < 6.00
Cc1nc(C(=O)N2CCCC3(CCN(Cc4ccccc4)CC3)C2)cs1 | < 6.00

Please find the next compound below.
Request the reported pIC50 associated with Cc1nc(C(=O)N2CCCC3(CCN(Cc4ccc(Cl)cc4)CC3)C2)cs1
< 6.00

* * *

- SYSTEM TESTED: Muscarinic acetylcholine receptor M3 (Homo sapiens, UniProt P20309)
- MEASUREMENT DESCRIPTION: Displacement of [3H]NMS from human muscarinic M3 receptor expressed in CHO-K1 cells after 16 hrs by scintillation proximity assay
I'd appreciate it if you could supply IC50 values for the items below.
Numbers only, in nM.

Take a look at these entries with their results.
SMILES DATA | MEAS VALUE
O=C(c1ccccc1)N1CCC2(CCN(Cc3cccc(Cl)c3)CC2)CC1 | 100
O=C(c1ccccc1)N1CCC2(CCN(Cc3ccccc3)CC2)CC1 | 126
Cc1cccc(CN2CCC3(CC2)CCN(C(=O)c2ccccc2)CC3)c1 | 100
O=C(c1cccs1)N1CCOC2(CCN(Cc3ccc(Cl)cc3)CC2)C1 | 63.1

Please find the next compound below.
# value lookup — system Muscarinic acetylcholine receptor M3 (Homo sapiens, UniProt P20309), readout IC50, item O=C(c1cscn1)N1CCOC2(CCN(Cc3ccc(Cl)cc3)CC2)C1
158

* * *

- SYSTEM TESTED: Muscarinic acetylcholine receptor M2 (Homo sapiens, UniProt P08172)
- Sequence (P08172 whole entry): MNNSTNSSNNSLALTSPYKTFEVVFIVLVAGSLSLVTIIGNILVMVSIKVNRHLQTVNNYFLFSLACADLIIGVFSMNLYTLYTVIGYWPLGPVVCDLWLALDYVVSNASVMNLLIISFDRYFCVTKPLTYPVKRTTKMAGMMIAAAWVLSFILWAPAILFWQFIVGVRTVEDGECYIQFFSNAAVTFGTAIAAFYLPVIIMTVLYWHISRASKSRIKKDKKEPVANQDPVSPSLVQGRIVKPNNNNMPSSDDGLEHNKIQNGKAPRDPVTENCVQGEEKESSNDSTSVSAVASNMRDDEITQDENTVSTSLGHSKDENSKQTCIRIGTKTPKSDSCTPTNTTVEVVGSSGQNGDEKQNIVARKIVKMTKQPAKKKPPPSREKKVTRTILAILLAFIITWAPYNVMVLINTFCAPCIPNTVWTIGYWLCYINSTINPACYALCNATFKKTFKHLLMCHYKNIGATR
- MEASUREMENT DESCRIPTION: Displacement of [3H]NMS from human muscarinic M2 receptor expressed in CHO-K1 cells after 16 hrs by scintillation proximity assay
I'd appreciate it if you could supply IC50 values for the items below.
One number for each entry, in nM.

Take a look at these entries with their results.
SMILES DATA | SYSTEM TESTED | IC50 [nM]
O=C(c1ccsc1)N1CCC2(CCN(Cc3ccccc3)CC2)CC1 | Muscarinic acetylcholine receptor M2 (Homo sapiens, UniProt P08172) | 15.8
Cc1cccc(CN2CCC3(CC2)CCN(C(=O)c2ccccc2)CC3)c1 | Muscarinic acetylcholine receptor M2 (Homo sapiens, UniProt P08172) | 2.51
Cc1nc(C(=O)N2CCOC3(CCN(Cc4ccc(Cl)cc4)CC3)C2)cs1 | Muscarinic acetylcholine receptor M2 (Homo sapiens, UniProt P08172) | 3.16
O=C(c1cccs1)N1CCOC2(CCN(Cc3ccc(Cl)cc3)CC2)C1 | Muscarinic acetylcholine receptor M2 (Homo sapiens, UniProt P08172) | 20
O=C(c1cscn1)N1CCOC2(CCN(Cc3ccc(Cl)cc3)CC2)C1 | Muscarinic acetylcholine receptor M2 (Homo sapiens, UniProt P08172) | 50.1
O=C(c1ccccc1)N1CCOC2(CCN(Cc3ccc(Cl)cc3)CC2)C1 | Muscarinic acetylcholine receptor M2 (Homo sapiens, UniProt P08172) | 126
O=C(c1ccc(CO)o1)N1CCOC2(CCN(Cc3ccc(Cl)cc3)CC2)C1 | Muscarinic acetylcholine receptor M2 (Homo sapiens, UniProt P08172) | 126
O=C(c1cnsn1)N1CCOC2(CCN(Cc3ccc(Cl)cc3)CC2)C1 | Muscarinic acetylcholine receptor M2 (Homo sapiens, UniProt P08172) | 39.8

// input: 5 compounds below; output: IC50 for each
1. CCOc1ccccc1C(=O)N1CCC2(CCN(Cc3ccccc3)CC2)CC1
2. O=C(c1ccccc1)N1CCC2(CCN(Cc3ccccc3)CC2)CC1
3. Cc1ccc(C(=O)N2CCOC3(CCN(Cc4ccc(Cl)cc4)CC3)C2)o1
4. CC(C)c1nc(C(=O)N2CCOC3(CCN(Cc4cccc(Cl)c4)CC3)C2)cs1
5. O=C(c1ccccc1)N1CCC2(CCN(Cc3cccc(Cl)c3)CC2)CC1

[79.4, 6.31, 50.1, 10, 3.98]

// input: 2 compounds below; output: IC50 for each
1. O=C(c1ccc2occc2c1)N1CCOC2(CCN(Cc3ccc(Cl)cc3)CC2)C1
2. CC(C)c1nc(C(=O)N2CCOC3(CCN(Cc4ccccc4)CC3)C2)cs1

1. 31.6
2. 15.8
